# Tested on: HOP-62 NSCLC
# assay.protocol: NCI tumour cell line growth inhibition, 48 h; in the data active means GI50 below about 0.43 µM; inactive means the rest
Labels: yes (1) (active), no (0) (inactive)

{"compound": "COc1ccc2c(c1)c(C1(c3cn(C)c4ccc(OC)cc34)C(=O)Nc3ccc(F)cc31)cn2C", "classification": "no (0)"}
{"compound": "COc1ccc(O)c(C(=O)c2ccc(C(=O)O[C@@H]3CCCNC[C@H]3NC(=O)c3ccncc3)cc2)c1F", "classification": "no (0)"}
{"compound": "COc1cnc2c(c1)C(=O)c1c-2n(CCCn2ccnc2)c(=O)c2cc(Cl)ccc12", "classification": "yes (1)"}
{"compound": "CN1CCN(c2ccc3nc(-c4cc(C(C)(C)C)c(O)c(C(C)(C)C)c4)[nH]c3c2)CC1", "classification": "no (0)"}
{"compound": "CC(=O)OC1COC(S[As](C)C)C(OC(C)=O)C1OC(C)=O (stereo not given)", "classification": "no (0)"}
{"compound": "CCC[CH2][Sn]([CH2]CCC)([O]C(=O)c1cccc(F)c1)[O]C(=O)c1cccc(F)c1", "classification": "no (0)"}
{"compound": "CCCN(CCC)c1ccc(CO)c(C)c1", "classification": "no (0)"}
{"compound": "COc1cc(CSc2nc3ccc(C)cc3c(=O)n2Cc2ccccc2)cc(OC)c1OC", "classification": "no (0)"}
{"compound": "O=C(COc1cccc(/C=C2\\COc3ccccc3C2=O)c1)Nc1nccs1", "classification": "no (0)"}
{"compound": "Cn1c(COC(=O)N2CCCCC2)nc2c(N3CCOCC3)nc(-c3ccccc3)nc21", "classification": "no (0)"}

###

# System: NCI-H226 lung
# assay.protocol: NCI tumour cell line growth inhibition, 48 h
Property: TGI; scope: individual compounds

{"compound": "CCCN(CCC)c1ccc(CO)c(C)c1", "unit.name": "µM", "censor.symbol": "=", "TGI": 23.7}
{"compound": "O=C1c2ccccc2-c2nc(-c3cccnc3)cc3c2c1nc1ccccc13", "unit.name": "µM", "censor.symbol": ">", "TGI": 100}
{"compound": "CC[N+]1(C)CCC(O)(c2ccc(Cl)cc2)C(C(=O)c2ccc(Cl)cc2)C1 (stereo not given)", "unit.name": "µM", "censor.symbol": "=", "TGI": 48.3}
{"compound": "COc1cc(N=NN(C)C)c(C(C)c2c3cc(OC)c(OC)cc3cc[n+]2C)cc1OC (stereo not given)", "unit.name": "µM", "censor.symbol": ">", "TGI": 100}
{"compound": "N#Cc1ccccc1C#C/C=C\\C#Cc1ccc(OCCCNC(=O)c2cc3ccccc3[nH]2)cc1", "unit.name": "µM", "censor.symbol": "=", "TGI": 31.9}

###

# Tested on: BT-549 breast
# assay.protocol: NCI tumour cell line growth inhibition, 48 h; in the data active means GI50 below about 0.43 µM; inactive means the rest
Labels: 1.0 (active), 0.0 (inactive)

{"compound": "CC(=O)OC1COC(S[As](C)C)C(OC(C)=O)C1OC(C)=O (stereo not given)", "classification": 0.0}
{"compound": "Cn1c(=O)cc2c3c(c(NCCCO)ccc31)C(=O)c1ccccc1-2", "classification": 0.0}
{"compound": "C#C[C@]1(O)CC[C@H]2[C@@H]3CC=C4c5sc(N=C(N)N)nc5CC[C@]4(C)[C@H]3CC[C@@]21C", "classification": 0.0}
{"compound": "O=C(Nc1cc(C(F)(F)F)ccc1F)Nc1n[nH]c2ccccc12", "classification": 0.0}
{"compound": "ClCCN(CCCl)c1ccc(-n2cnc3c(Cl)ncnc32)cc1", "classification": 0.0}
{"compound": "CCN(CC)CCOc1ccc(/C=C2\\CC3C4CCC5=CC(=O)CC[C@]5(C)C4CC[C@]3(C)C2=O)cc1OC (stereo not given in full)", "classification": 0.0}
{"compound": "C(=C1c2ccccc2-c2ccccc21)c1ccccn1", "classification": 0.0}
{"compound": "COc1cnc2c(c1)C(=O)c1c-2n(CCCn2ccnc2)c(=O)c2cc(Cl)ccc12", "classification": 1.0}
{"compound": "CC1(C)N=C(N)N=C(N)N1c1ccc(F)c(C(F)(F)F)c1", "classification": 0.0}
{"compound": "N#Cc1ccccc1C#C/C=C\\C#Cc1ccc(OCCCNC(=O)c2cc3ccccc3[nH]2)cc1", "classification": 0.0}
